Data provenance is PubChem BioAssay (NCI).

System: UACC-62 melanoma
experiment: NCI-60 one-dose screen, 48 h (100 = growth as untreated, 0 = no growth, -100 = all killed)
reported.conditions: 10 µM unless noted
About 83,000 compounds went through this panel and 20% of them were active in at least one assay; those are over-represented in the sample as a whole.
I'd appreciate it if you could supply growth values for the items below.
Give bare numbers, in %.

Consider the reported growth for these compounds:
CCN1C(=O)/C(=c2\sc3n(c2=O)NC2C(N=3)N(CC)C(=O)N2CC)c2ccccc21 (stereo not given) :: 43.9
CC1(c2ccccc2)NC(=O)N(CC(=O)Nc2cccc(I)c2)C1=O (stereo not given) :: 74
COc1cc(/C=C/C(=O)c2ccc(Nc3ncnc4ccccc34)cc2)cc(OC)c1 :: 76.9
COc1cc(COC(=O)CCCCC[P+](c2ccccc2)(c2ccccc2)c2ccccc2)c(OC)c2c1OCO2 :: 46.9

Now consider a different compound.
Tell us which growth value is on record for Cc1ccc(C2CC(c3cccc(Nc4ccncc4)c3)=NN2c2ccccc2)cc1 (stereo not given)
-94.9
